The entries below come with measured growth values attached.
tested on: IGROV1 ovarian; assay: NCI-60 one-dose screen, 48 h (100 = growth as untreated, 0 = no growth, -100 = all killed); conditions: 10 µM unless noted
Compounds without any hit were thinned out: in the full panel of roughly 83,000, 20% have a hit.
Provide the reading as a plain figure in %.

Check out these entries, answers already filled in.
{"compound structure string": "NCCCNc1nc2ccccc2c2c(=O)c3cc(F)cc(F)c3sc12", "observable": "growth", "value observed": 77.9}
{"compound structure string": "Cc1cc2nc3cc(C)c(N)cc3[n+](-c3ccccc3)c2cc1N", "observable": "growth", "value observed": 79.4}

Q: Lookup: growth / IGROV1 ovarian / COc1cccc(-c2nn(-c3ccccc3)cc2-c2ccnc(N3CCOCC3)c2)c1
Result: 79.5
